Data credit: paper PMC7952708

# System: OpuAC (substrate-binding domain of OpuA) (Lactococcus lactis, UniProt Q7DAU8, K566C/N414C)
# Protocol Summary: solution-based ALEX single-molecule FRET titration

Compound: C[N+](C)(C)CC(=O)[O-] [glycine betaine]
Kd: 1 to 4 µM
